Sourced from patent US9839642B2

Assayed Target: IMP-1 (Serratia marcescens, UniProt P52699)
Sequence (P52699 19-246, looked up, species assumed): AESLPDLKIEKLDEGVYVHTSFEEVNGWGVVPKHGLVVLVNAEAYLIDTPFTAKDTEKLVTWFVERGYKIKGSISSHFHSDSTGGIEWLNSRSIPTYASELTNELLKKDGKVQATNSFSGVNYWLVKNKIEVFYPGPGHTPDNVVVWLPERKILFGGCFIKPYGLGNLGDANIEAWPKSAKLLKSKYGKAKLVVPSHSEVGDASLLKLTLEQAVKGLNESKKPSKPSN
Measurement Notes: Enzyme activity: determination of IC50, fluorescence assay with CCF2-FA substrate
Type: biochemical
Conditions: enzyme 2 pM, CCF2-FA 1.25 μM, 2 hours at 25° C.; read-out: IMP1 IC50
Examples of molecules with documented pIC50 follow.
Remember, pIC50 is on a log scale: it is -log10 of the molar concentration.

Some solved entries appear below for comparison.
| Structure Notation | Measured Number |
| --- | --- |
| CCC[C@H](C(=O)O)[C@H](Cc1cccc(Br)c1)c1nn[nH]n1 | 6.92 |
| CCC[C@H](C(=O)O)[C@@H](Cc1ccc(-c2ccc3c(c2)OCC(=O)N3)cn1)c1nnn[nH]1 | 4.80 |
| CCC[C@H](C(=O)O)[C@H](Cc1ccc(-c2ccc(S(N)(=O)=O)cc2)cc1)c1nn[nH]n1 | 7.55 |

Consider now this further molecule.
Sample CCC[C@H](C(=O)O)[C@H](Cc1ccc(-c2cnc(N)nc2)nc1)c1nnn[nH]1 ; pIC50 observed: 5.96
